Measured LTS of individual entries
Test system: Mus musculus
measurement.description: Long-term survivors among 6 mice infected with P388 leukemia, scored on day 60 at 160 mg/kg dose
Format: functional

| compound | LTS |
| --- | --- |
| Cc1c2ccnc(C(=O)NCCN(C)C)c2cc2c3cc(OP(=O)(O)OCc4ccccc4)ccc3n(C)c12 | 0 |
| Cc1c2ccnc(C(=O)NCCN(C)C)c2cc2c3cc(OCC(O)CO)ccc3n(C)c12 (stereo unspecified) | 0 |
| Cc1c2ccnc(C(=O)NCCN(C)C)c2cc2c3cc(OP(=O)(O)O)ccc3n(C)c12 | 1 |
| Cc1c2ccnc(C(=O)NCCN(C)C)c2cc2c3cc(OS(C)(=O)=O)ccc3n(C)c12 | 0 |
| Cc1c2ccnc(C(=O)NCCN(C)C)c2cc2c3cc(OC(=O)N4CCOCC4)ccc3n(C)c12 | 0 |
| Cc1c2ccnc(C(=O)NCCN(C)C)c2cc2c3cc(OC(=O)N4CCN(C)CC4)ccc3n(C)c12 | 0 |

* * *

Tested on: B16
measurement.description: Inhibition of murine B16 melanoma cell proliferation measured by the MTT assay
Type: functional, cell-based
measurement.conditions: Mus musculus
pIC50: −log10 of the molar value.
Classify by measured pIC50: Fulfilled if it is equal to or exceeds 8, Not fulfilled if it is smaller.

| compound | assigned.label |
| --- | --- |
| Cc1c2ccnc(C(=O)NCCN(C)C)c2cc2c3cc(OC(=O)NCCC(=O)O)ccc3n(C)c12 | Not fulfilled |
| Cc1c2ccnc(C(=O)NCCN(C)C)c2cc2c3cc(OC(=O)CCCCC(=O)O)ccc3n(C)c12 | Fulfilled |
| Cc1c2ccnc(C(=O)NCCN(C)C)c2cc2c3cc(OCCCCC(=O)O)ccc3n(C)c12 | Not fulfilled |
| Cc1c(O)ccc2c1c1cc3c(C(=O)NCCN(C)C)nccc3c(C)c1n2C | Fulfilled |
| Cc1c2ccnc(C(=O)NCCN(C)C)c2cc2c3cc(OC(=O)OCCCC(=O)O)ccc3n(C)c12 | Fulfilled |
| Cc1c2ccnc(C(=O)NCCN(C)C)c2cc2c3cc(OC(=O)c4cccnc4)ccc3n(C)c12 | Fulfilled |
| Cc1c2ccnc(C(=O)NCCN(C)C)c2cc2c3cc(OC(=O)CCCCCCC(=O)O)ccc3n(C)c12 | Fulfilled |
| Cc1c2ccnc(C(=O)NCCN(C)C)c2cc2c3cc(OCC(O)CO)ccc3n(C)c12 (configuration not stated) | Not fulfilled |
| Cc1c2ccnc(C(=O)NCCN(C)C)c2cc2c3cc(OC(=O)CC(C)(C)CC(=O)O)ccc3n(C)c12 | Fulfilled |
| Cc1c2ccnc(C(=O)NCCN(C)C)c2cc2c3cc(OC(=O)CCC(NC(=O)OC(C)(C)C)C(=O)O)ccc3n(C)c12 (configuration not stated) | Fulfilled |
| Cc1c2ccnc(C(=O)NCCN(C)C)c2cc2c3cc(O)ccc3n(C)c12 | Fulfilled |
| Cc1c2ccnc(C(=O)NCCN(C)C)c2cc2c3cc(OCC4C[C@@H]4c4ccccc4)ccc3n(C)c12 (some centres not stated) | Not fulfilled |
| CCCCCCCCCCCCNC(=O)Oc1ccc2c(c1)c1cc3c(C(=O)NCCN(C)C)nccc3c(C)c1n2C | Not fulfilled |
| Cc1c2ccnc(C(=O)NCCN(C)C)c2cc2c3cc(OC(=O)N4CCN(C)CC4)ccc3n(C)c12 | Not fulfilled |
| CCOC(=O)CCNC(=O)Oc1ccc2c(c1)c1cc3c(C(=O)NCCN(C)C)nccc3c(C)c1n2C | Fulfilled |
| Cc1c2ccnc(C(=O)NCCN(C)C)c2cc2c3cc(OS(C)(=O)=O)ccc3n(C)c12 | Not fulfilled |
| Cc1c2ccnc(C(=O)NCCN(C)C)c2cc2c3cc(OC(=O)N4CCC(N5CCCCC5)CC4)ccc3n(C)c12 | Not fulfilled |
| Cc1c2cc[n+](C)cc2c(C)c2c1[nH]c1ccc(O)cc12 | Not fulfilled |
| Cc1c2ccnc(C(=O)NCCN(C)C)c2cc2c3cc(OC(=O)N4CCN(C(c5ccccc5)c5ccccc5)CC4)ccc3n(C)c12 | Not fulfilled |
| CCOCCC(=O)Oc1ccc2c(c1)c1cc3c(C(=O)NCCN(C)C)nccc3c(C)c1n2C | Fulfilled |
| Cc1c2ccnc(C(=O)NCCN(C)C)c2cc2c3cc(OC(=O)NCCCC(=O)O)ccc3n(C)c12 | Not fulfilled |
| Cc1c2ccnc(C(=O)NCCN(C)C)c2cc2c3cc(OC(=O)N(C)C)ccc3n(C)c12 | Not fulfilled |
| CCCCCCCCCCCCCC(=O)Oc1ccc2c(c1)c1cc3c(C(=O)NCCN(C)C)nccc3c(C)c1n2C | Not fulfilled |
| Cc1c2c(C(=O)NCCN(C)C)nccc2c(C)c2c1c1cc(O)ccc1n2C | Fulfilled |
| Cc1c2ccnc(C(=O)NCCN(C)C)c2cc2c3cc(OC(=O)CCCCC(=O)OCc4ccccc4)ccc3n(C)c12 | Not fulfilled |
| Cc1c2ccnc(C(=O)NCCN(C)C)c2cc2c3cc(OP(=O)(O)O)ccc3n(C)c12 | Fulfilled |

* * *

Measured IC50 of individual entries
Test system: L1210
measurement.description: Inhibition of murine L1210 leukemia cell proliferation measured by the MTT assay
Type: functional, cell-based
measurement.conditions: Mus musculus
assay.metric: IC50 (nM)

| compound | assay.metric | scale.unit | recorded.result |
| --- | --- | --- | --- |
| Cc1c2ccnc(C(=O)NCCN(C)C)c2cc2c3cc(OC(=O)CCCCC4CCSS4)ccc3n(C)c12 (centres undefined) | IC50 | nM | 118 |
| Cc1c2ccnc(C(=O)NCCN(C)C)c2cc2c3cc(OC(=O)CCC(NC(=O)OC(C)(C)C)C(=O)O)ccc3n(C)c12 (centres undefined) | IC50 | nM | 89.3 |
| Cc1c2ccnc(C(=O)NCCN(C)C)c2cc2c3cc(OC(=O)OCCCC(=O)O)ccc3n(C)c12 | IC50 | nM | 64 |
| Cc1c2ccnc(C(=O)NCCN(C)C)c2cc2c3cc(OC(=O)CCCCC(=O)OCc4ccccc4)ccc3n(C)c12 | IC50 | nM | 109 |

* * *

System: Mus musculus
measurement.description: Percent median survival time of mice injected with B16 melanoma, at a intraperitoneal compound dose of 20 mg/kg

| smiles.str | scale.unit | T/C |
| --- | --- | --- |
| Cc1c2ccnc(C(=O)NCCN(C)C)c2cc2c3cc(OC(=O)N4CCN(C(c5ccccc5)c5ccccc5)CC4)ccc3n(C)c12 | % | 102 |
| Cc1c2ccnc(C(=O)NCCN(C)C)c2cc2c3cc(OC(=O)N4CCN(C)CC4)ccc3n(C)c12 | % | 159 |
| Cc1c2ccnc(C(=O)NCCN(C)C)c2cc2c3cc(OC(=O)N(C)c4ccccc4)ccc3n(C)c12 | % | 101 |
| Cc1c2ccnc(C(=O)NCCN(C)C)c2cc2c3cc(OS(C)(=O)=O)ccc3n(C)c12 | % | 142 |

* * *

Measured pIC50 of individual entries
Tested on: B16
measurement.description: Inhibition of murine B16 melanoma cell proliferation measured by the MTT assay
Assay type: functional, cell-based
measurement.conditions: Mus musculus
pIC50: −log10 of the molar value.

| compound | pIC50 |
| --- | --- |
| Cc1c2c(C(=O)NCCN(C)C)nccc2c(C)c2c1c1cc(OC(=O)CCCCC(=O)O)ccc1n2C | 8.20 |
| CC(=O)Oc1ccc2c(c1)c1cc3c(C(=O)NCCN(C)C)nccc3c(C)c1n2C | 8.21 |
| Cc1c(OC(=O)CCCCC(=O)O)ccc2c1c1cc3c(C(=O)NCCN(C)C)nccc3c(C)c1n2C | 8.19 |
| Cc1c2ccnc(C(=O)NCCN(C)C)c2cc2c3cc(OC(=O)CCCCC4CCSS4)ccc3n(C)c12 (stereo unspecified) | 7.85 |
| COC(=O)CCCC(=O)Oc1ccc2c(c1)c1cc3c(C(=O)NCCN(C)C)nccc3c(C)c1n2C | 8.15 |
| Cc1c2ccnc(C(=O)NCCN(C)C)c2cc2c3cc(OC(=O)CCCC(=O)O)ccc3n(C)c12 | 7.83 |
